src = patent US9200171B2

experiment: Absorption-maximum wavelength λmax, molar extinction coefficient ε and solution colour in each solvent; assay type: physicochemical; settings: tetradecane, at absorption-maximum wavelength
measure: ε (L/mol/cm)
Unit L/mol/cm implied. Number only.

Worked cases, ε given:
get_value(item= CCCCC(CC)COC(=O)C(C#N)=Cc1sc(N=Nc2cc(OC)c(N(CC(CC)CCCC)CC(CC)CCCC)cc2NC(C)=O)nc1Cl (stereo not drawn) , readout=ε) returns 55000

get_value(item= C=CCn1c(N=Nc2ccc(N(CCC)CCC)cc2NC(C)=O)nc(C#N)c1C#N [Comparative example compound 2, reference compound] , readout=ε) returns 39000

Others:
get_value(item= CCCCC(CC)CN(CC(CC)CCCC)c1cc(NC(C)=O)c(/N=N/c2nc(Cl)c(C=O)s2)cc1OC (stereo not drawn) , readout=ε) returns 59000
